assay-notes: Human HepG2 cell viability assay in 384 well format
Type: toxicity, cell-based
Design: dose 125 nL, time 70.5 hour; concentration not given beside the values
protocol-conditions: HepG2 cells, read-out: Inhibition
value-type: cytotoxicity at 70.5 h (%)
The reply should be a number in %, with the unit left off.

>>> endpoint_value("Cc1cccc(CNc2n[nH]c(C)n2)c1")
-5.26
>>> endpoint_value("COc1ccc(COCC(=O)N2CCC(c3nncn3C)CC2)cc1")
-12.3
>>> endpoint_value("O=S(=O)(c1ccc(Cl)cc1)N1CCC(OCc2ccccn2)C1 (configuration not stated)")
2.04

Form: compound = O=C(CCn1cccc1)NCc1ccc(CN2CCCCCC2)o1 ; cytotoxicity at 70.5 h = 0.95

Recorded cytotoxicity at 70.5 h (compound Cc1cccc(CN2CCCC2(C(N)=O)c2cnccn2)n1 (configuration not stated) ): 19
